# target_or_system: Sphingosine 1-phosphate receptor 1 (Homo sapiens, UniProt P21453)
# Sequence (P21453 whole entry): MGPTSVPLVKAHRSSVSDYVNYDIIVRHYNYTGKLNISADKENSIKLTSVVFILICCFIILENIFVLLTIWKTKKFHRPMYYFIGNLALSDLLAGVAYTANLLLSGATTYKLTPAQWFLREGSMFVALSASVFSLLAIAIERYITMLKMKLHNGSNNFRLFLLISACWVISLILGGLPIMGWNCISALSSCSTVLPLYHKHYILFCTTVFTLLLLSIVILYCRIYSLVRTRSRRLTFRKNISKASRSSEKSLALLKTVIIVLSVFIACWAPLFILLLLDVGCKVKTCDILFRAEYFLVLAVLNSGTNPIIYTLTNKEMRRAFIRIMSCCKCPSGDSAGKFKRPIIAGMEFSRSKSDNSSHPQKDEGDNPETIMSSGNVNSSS
# test_summary: potentiators of S1P1 agonist response, dose response, cell-based, potentiator mode, 60K MLSMR set (AID 466)
Documented EC50 across a set of compounds
Numeric only. Scale: µM

Worked examples follow.
• c1ccc(-c2ccc(-c3nc(-c4ccncc4)no3)cc2)cc1 = 8.31
• CCCc1ccc(OCc2nc(-c3ccc(NC(=O)c4ccco4)cc3)no2)cc1 = 4.08
• CCOC(=O)C1C(=O)C=C(c2ccc(OC)cc2)CC1c1ccco1 (stereo not drawn) = 3.37
• Oc1ccc(-c2nnc(SCC3CCCCC3)o2)cc1 = 0.437
• COc1ccccc1-c1nc(-c2cccc(C)c2)no1 = 0.999
• COc1ccc(C(=O)C(CN2CCOCC2)c2ccccc2)cc1F (stereo not drawn) = 31.1
• COc1ccc(-c2nc(-c3ccc(Br)o3)no2)cc1OC = 5.87
• O=C(Cc1c[nH]c2ccccc12)N1CCc2ccccc21 = 7.74
• CCc1cc(-c2n[nH]cc2-c2ccc3c(c2)OCO3)c(O)cc1O = 6.57
• COc1ccc(-c2noc(-c3cc(C)cc(C)c3)n2)cc1OC = 1.01

As a next step, examine the compound that follows.
[Q] In one line, give reported EC50 of the entry Cc1nn(-c2nc3ccccc3s2)c(N)c1-c1ccccc1 .
[A] 0.385

====

# target_or_system: Sphingosine 1-phosphate receptor 1 (Homo sapiens, UniProt P21453)
# test_summary: potentiators of S1P1 agonist response, dose response, cell-based, potentiator mode, 60K MLSMR set (AID 466)
Threshold check on EC50: strictly below 3 µM is true (1); on or above 3 µM is false (0).

// known answers, use as guide
• O=C(CSc1nnc(-c2c[nH]c3ccccc23)o1)N1c2ccccc2CCc2ccccc21 = false (0)
• Cc1sc2ncnc(Sc3nnnn3-c3ccccc3)c2c1C = false (0)

[Q] Identify whether the compound Cc1cc(C(=O)CSc2nnc(-c3cccs3)o2)c(C)n1-c1ccccc1 records EC50 below 3 µM.
[A] false (0)

[Q] Identify whether the compound C=CS(=O)(=O)c1ccc(Oc2ccc(S(=O)(=O)C=C)cc2)cc1 records EC50 below 3 µM.
[A] false (0)

[Q] Identify whether the compound Nc1nnnn1N=C/C(Br)=C/c1ccccc1 records EC50 below 3 µM.
[A] false (0)

====

# target_or_system: UniProt:P21453
# test_summary: potentiators of S1P1 agonist response, dose response, cell-based, potentiator mode, 60K MLSMR set (AID 466)
# run_parameters: inactive by the depositor's call
Documented EC50 across a set of compounds
Numeric only. Scale: µM

Worked examples follow.
• O=C(Nc1ccc(Oc2ccccc2)cc1)c1cnc2n(c1=O)CCS2 = 19.9
• Cc1ccc(Cl)cc1N1CCN(C(=O)COc2ccc(S(=O)(=O)NC(C)C)cc2)CC1 = 13.1
• Cc1ccc(OCCn2cc(C(=N)NO)c3ccccc32)cc1C = 11.2
• COc1ccc(CNc2cc(C)nc3ncnn23)c(OC)c1 = 16
• CCOc1ccc(Cc2nc(-c3nonc3N)no2)cc1OCC = 12.6

[Q] In one line, give reported EC50 of the entry Brc1ccc2ncnc(Nc3ccc(N4CCOCC4)cc3)c2c1 .
[A] 15.1

====

# target_or_system: Sphingosine 1-phosphate receptor 1 (Homo sapiens, UniProt P21453)
# test_summary: potentiators of S1P1 agonist response, dose response, cell-based, potentiator mode, 60K MLSMR set (AID 466)
Where a name gives a salt, the structure may show the parent alone.
Threshold check on EC50: strictly below 5 µM is YES; on or above 5 µM is NO.

// known answers, use as guide
• COC(=O)c1ccc2c(=O)n(C3CCCCC3)c(SCC#N)nc2c1 = NO
• Cc1ccc(C(C)C)c(OCc2ccc(-c3nnco3)cc2)c1 = YES
• Nc1ccc(N2CCCCCC2)cc1 [4-(1-azepanyl)aniline;hydrochloride] = NO
• Cc1cc(N2CCN(C/C=C/c3ccccc3)CC2)n2ncnc2n1 = NO
• CCCCOc1ncnc2c1[nH]c1ccc(F)cc12 = YES

[Q] Identify whether the compound COc1ccc(-n2c(C)cc(C(=O)CSc3nnc(-c4cccs4)o3)c2C)cc1 records EC50 below 5 µM.
[A] YES

[Q] Identify whether the compound CC(C)c1cc(C(=O)N2CCN(C(c3ccccc3)c3ccccc3)CC2)no1 records EC50 below 5 µM.
[A] NO

====

# target_or_system: Sphingosine 1-phosphate receptor 1 (Homo sapiens, UniProt P21453)
# test_summary: potentiators of S1P1 agonist response, dose response, cell-based, potentiator mode, 60K MLSMR set (AID 466)
Documented pEC50 across a set of compounds
Interpret pEC50 as the negative base-10 log of the concentration measured in mol/L.

- COc1ccccc1-n1nnnc1S(=O)(=O)Cc1ccc(Cl)cc1: 5.42

[Q] In one line, give reported pEC50 of the entry c1ccc2c(c1)oc1c(NCc3ccc4c(c3)OCO4)ncnc12 .
[A] 5.19

[Q] In one line, give reported pEC50 of the entry Cc1cc(C=c2sc3nc4ccccc4n3c2=O)c(C)n1-c1ccccn1 .
[A] 6.95

[Q] In one line, give reported pEC50 of the entry CCOc1ccc(-c2nnc(-c3cccnc3)o2)cc1OCC .
[A] 5.63

====

# target_or_system: Sphingosine 1-phosphate receptor 1 (Homo sapiens, UniProt P21453)
# test_summary: potentiators of S1P1 agonist response, dose response, cell-based, potentiator mode, 60K MLSMR set (AID 466)
# run_parameters: inactive by the depositor's call
Documented EC50 across a set of compounds
Numeric only. Scale: µM

- CC/N=c1\sc(C(=O)NCCc2ccccc2)cc(=O)n1CC: 23.1
- CCCOc1ccc(S(=O)(=O)NCc2ccc(OC)cc2)cc1: 19.8

[Q] In one line, give reported EC50 of the entry C=CCn1c(C)cc(C(=O)CSc2nc3ccccc3o2)c1C .
[A] 10.3

[Q] In one line, give reported EC50 of the entry CCCCCn1c(=O)c(C(=O)NCc2ccncc2)c(O)c2ccccc21 .
[A] 24.4

[Q] In one line, give reported EC50 of the entry Cc1cccc(-c2nc(C#N)c(NC3CCCCC3)o2)c1 .
[A] 11.8

====

# target_or_system: Sphingosine 1-phosphate receptor 1 (Homo sapiens)
# test_summary: potentiators of S1P1 agonist response, dose response, cell-based, potentiator mode, 60K MLSMR set (AID 466)
reported_property: pEC50
Interpret pEC50 as the negative base-10 log of the concentration measured in mol/L.

Worked examples follow.
• CC(C)c1ccc2oc(-c3ccc(N)cc3)nc2c1 = 5.67
• COC(=O)c1sc(NC(=O)c2ccc(OC)cc2OC)nc1C = 5.11
• Nc1nonc1C(=O)NCCNCc1cc(Br)ccc1OCc1ccc(F)cc1 = 5.11
• Cc1nn(Cc2ccc(Cl)c(Cl)c2)c(C)c1NC(=O)c1cc(CC(C)C)on1 = 5.03
• Cc1nnc(SC(=O)N2c3ccccc3Sc3ccccc32)s1 = 5.44

[Q] In one line, give reported pEC50 of the entry N#CCCS(=O)(=O)c1nnnn1-c1ccccc1 .
[A] 5.45

[Q] In one line, give reported pEC50 of the entry CCCS(=O)(=O)c1nnnn1-c1cccc(OC)c1 .
[A] 5.50

[Q] In one line, give reported pEC50 of the entry c1csc(CCNc2ncnc3sc4c(c23)CCC4)c1 .
[A] 5.84

[Q] In one line, give reported pEC50 of the entry Cc1ccccc1OCCCCc1c(C)n[nH]c1C .
[A] 5.19

[Q] In one line, give reported pEC50 of the entry COc1ccc(-c2nc(-c3cccc(C)c3)no2)cc1OC .
[A] 5.97

====

Documented EC50 across a set of compounds
# target_or_system: Sphingosine 1-phosphate receptor 1 (Homo sapiens)
# test_summary: potentiators of S1P1 agonist response, dose response, cell-based, potentiator mode, 60K MLSMR set (AID 466)
# run_parameters: inactive by the depositor's call

• Cc1nc(C)c(C(=O)Nc2ccc(Oc3ccccc3)cc2)o1 = 10.5 µM
• Cc1nc2ncnn2c(N2CCN(c3cccc(C(F)(F)F)c3)CC2)c1C = 15.4 µM
• O=C(Nc1nc(-c2nc3ccccc3s2)cs1)c1ccc(S(=O)(=O)N2CCOCC2)cc1 = 15.5 µM
• COc1cccc(-c2nc(-c3ccc(NC(=O)c4cccnc4)cc3)no2)c1 = 22.1 µM
• Clc1ccc(CCNc2[nH]cnc3ncnc2-3)cc1 = 10.6 µM

[Q] In one line, give reported EC50 of the entry O=C(Nc1ccc(C(F)(F)F)cc1)C1CCCN1S(=O)(=O)c1cccc2cccnc12 (stereo not given) .
[A] 10.2 µM

[Q] In one line, give reported EC50 of the entry CC1=C(/C=C/C(C)=C/C=C/C(C)=C/C(=O)O)C(C)(C)CCC1 [ALL-TRANS-RETINOIC ACID] .
[A] 34.1 µM

[Q] In one line, give reported EC50 of the entry CC(=O)Nc1ccc(S(=O)(=O)N2CCN(c3cccc(C)c3C)CC2)cc1 .
[A] 16.7 µM

[Q] In one line, give reported EC50 of the entry CCC(=O)Nc1ccc2c(c1)C(=O)N(C1CCCCC1)C2=O .
[A] 58 µM

[Q] In one line, give reported EC50 of the entry c1ccc(CSc2nnc(-c3cccs3)o2)cc1 .
[A] 20.4 µM
